System: intestinal alkaline phosphatase [Mus musculus]
Assay: mouse intestinal phosphatase enzyme activation – biochemical, luminescence, single concentration, confirmation (AID 434970)
Test Context: purified mouse IAP, CDP-Star luminescence, 30 min, at 10 µM; stronger effect = lower value
In all, about 11,000 compounds went through this assay and about 310 (2.8%) were called active. The list comes from a sample in which actives are over-represented; it also holds close analogues and randomly drawn compounds.
Please provide measured activity change, negative = activation for the entries that follow.
// units = %; emit number, no label

Specify reported activity change, negative = activation for the compound shown: `Cc1nn(C)cc1CNC(=O)c1cccc(Br)c1`
-11.8

Specify reported activity change, negative = activation for the compound shown: `Cc1ccc(OCCCC(=O)Nc2nncs2)cc1`
-0.3

Specify reported activity change, negative = activation for the compound shown: CCOC(=O)C1C(C(=O)OC)=C(C2=CCCCC2)c2ccccc2N1S(=O)(=O)C(F)(F)F (stereo not drawn)
3

---

Please provide measured activity change, negative = activation for the entries that follow.
Tested on: intestinal alkaline phosphatase [Mus musculus]
Assay: mouse intestinal phosphatase enzyme activation – biochemical, luminescence, single concentration, confirmation (AID 434970)
Test Context: purified mouse IAP, CDP-Star luminescence, 30 min, at 10 µM; stronger effect = lower value
Hit rate of the full screen: of about 11,000 compounds, about 310 (2.8%) were called active. For the sample, actives were picked, then their nearest neighbours and some compounds at random.

Specify reported activity change, negative = activation for the compound shown: `O=C(NCC1CCN(c2ccc(S(=O)(=O)N3CCOCC3)cc2)CC1)Nc1ccccc1`
-77.3% (inactive)

Specify reported activity change, negative = activation for the compound shown: `O=C(O)Cn1c(SCc2cccc3ccccc23)nc2ccccc21`
-9.2% (inactive)

Specify reported activity change, negative = activation for the compound shown: CSc1nc2n(n1)C(c1cccc(F)c1)C(C(=O)Nc1ccc(C)cc1C)=C(C)N2 (centres undefined)
6.95% (inactive)

Specify reported activity change, negative = activation for the compound shown: `Cc1csc(SCc2ccccc2C(=O)O)n1`
5.2% (inactive)

---

System: intestinal alkaline phosphatase [Mus musculus]
Assay: mouse intestinal phosphatase enzyme activation – biochemical, luminescence, single concentration, confirmation (AID 434970)
Test Context: purified mouse IAP, CDP-Star luminescence, 30 min, at 10 µM; measured here: IAP activation factor, stronger effect = higher value
The whole screen tested about 11,000 compounds, of which about 310 (2.8%) were called active. This is one part of a sample in which actives are shown more often than they occur.
Reported Property: activation factor

Specify reported activation factor for the compound shown: `COc1ccc(CN2CC[C@H]3C=CC[C@@H](C(=O)Nc4ccc(Cl)c(C(F)(F)F)c4)[C@H]3C2=O)cc1OC`
2.85

Specify reported activation factor for the compound shown: `CCN(CC)c1nc(N)c2c(N)n(-c3ccccc3C)c(=S)c(C#N)c2c1C#N`
0.823

Specify reported activation factor for the compound shown: `CCn1cc(CN2CCC(C(=O)Nc3cccc(-c4cccc(Cl)c4)c3)CC2)cn1`
4.29

Specify reported activation factor for the compound shown: `CC(C)c1ccc(CN2CCC(C(=O)NCc3cccnc3)CC2)cc1`
1.04

Specify reported activation factor for the compound shown: `COC(=O)C[C@H](NC(=O)Cn1cnc2c(NCc3ccccc3)ncnc21)C(=O)OC`
0.97

Specify reported activation factor for the compound shown: `Cn1cc(CN2CCC(C(=O)Nc3cccc(-c4cccc(F)c4)c3)CC2)cn1`
2.29

Specify reported activation factor for the compound shown: `COc1ccc(OC)c(NC(=O)C(=O)/C=C(\O)c2cc(OC)ccc2OC)c1`
0.905

Specify reported activation factor for the compound shown: `CC(C)n1cc(CN2CCC(C(=O)Nc3cccc(-c4cccc(Cl)c4)c3)CC2)cn1`
3.97

Specify reported activation factor for the compound shown: `COCCCNC(=O)CCSc1ccc(Cl)cc1`
0.897

Specify reported activation factor for the compound shown: `CCn1cc(CN2CCC(C(=O)Nc3cccc(-c4cccc(F)c4)c3)CC2)cn1`
2.66

Specify reported activation factor for the compound shown: `O=C(Cn1cc(C(=O)c2ccco2)c2ccccc21)NCc1ccco1`
0.907

Specify reported activation factor for the compound shown: `COc1cc2sc(-c3ccccc3OC)c(-c3ccc(OCCN4CCOCC4)cc3)c2cc1OC`
1

Specify reported activation factor for the compound shown: `Fc1cc(NC(=S)NCc2ccc(CNC(=S)Nc3ccc(Cl)c(F)c3)cc2)ccc1Cl`
1.44

Specify reported activation factor for the compound shown: Cc1ccc2c(c1)N(CCC(=O)NCc1cccs1)C(=O)C(C)O2 (centres undefined)
1.03

Specify reported activation factor for the compound shown: `C=CCNC(=O)/C(=C/c1ccco1)NC(=O)c1ccc(Br)o1`
0.906

Specify reported activation factor for the compound shown: `COc1cccc(-c2nn(-c3ccccc3)cc2C(=O)NCC(=O)O)c1`
1.08

Specify reported activation factor for the compound shown: `COc1ccc(NC(=O)Nc2ccc3c(c2)C(=O)N([C@H](C)CO)C[C@H](C)[C@@H](CN(C)C(=O)Nc2ccc4c(c2)OCO4)O3)cc1`
1.63

Specify reported activation factor for the compound shown: `C[C@H](CO)N1C[C@H](C)[C@@H](CN(C)C(=O)NC2CCCCC2)Oc2ccc(NC(=O)Nc3ccccc3)cc2C1=O`
2

Specify reported activation factor for the compound shown: `CN=C1N(C)C[C@@H]2[C@@H]3C(=O)N(Cc4ccccc4)C(=O)[C@@H]3[C@](Cc3ccccc3)(C(=O)OC)N12`
1.16

Specify reported activation factor for the compound shown: `O=C(CSc1nnc(-c2ccco2)n1Cc1ccco1)NCc1ccccc1`
1.11

Specify reported activation factor for the compound shown: `CCN1C(=O)[C@H]2[C@H]3CN=C(SC)N3[C@@](CC)(C(=O)OC)[C@H]2C1=O`
0.957

Specify reported activation factor for the compound shown: COc1ccc(-n2ncc3c(=O)n(CC(=O)N4c5ccccc5CC4C)cnc32)cc1 (centres undefined)
1

Specify reported activation factor for the compound shown: `Cc1cc2nc(C)n(CCCNC(=O)Nc3cccc4ccccc34)c2cc1C`
2.18

Specify reported activation factor for the compound shown: CC1OC23CCCCC2C(C#N)(C(=N)O3)C1(C#N)C#N (centres undefined)
0.959

Specify reported activation factor for the compound shown: CCCCCCCCCCCC(=O)NC(C(=O)OCC)C(O)c1cccc([N+](=O)[O-])c1 (centres undefined)
1.03

Specify reported activation factor for the compound shown: `C[C@H](CO)N1C[C@H](C)[C@@H](CN(C)C(=O)Nc2ccc(C(F)(F)F)cc2)Oc2ccc(NC(=O)Nc3ccccc3)cc2C1=O`
1.71

Specify reported activation factor for the compound shown: `COc1cc(-c2noc(CCC(N)=O)n2)cc(OC)c1OC`
0.884

Specify reported activation factor for the compound shown: `Cc1sc2nc(CN3CCOCC3)nc(NS(=O)(=O)c3ccc4c(c3)OCCO4)c2c1C`
0.956

Specify reported activation factor for the compound shown: `Cc1ccc(CN2CCC(C(=O)Nc3cccc(-c4cccc(F)c4)c3)CC2)o1`
1.48

---

Please provide measured activity change, negative = activation for the entries that follow.
System: intestinal alkaline phosphatase [Mus musculus]
Assay: mouse intestinal phosphatase enzyme activation – biochemical, luminescence, single concentration, confirmation (AID 434970)
Test Context: purified mouse IAP, CDP-Star luminescence, 30 min, at 10 µM; stronger effect = lower value
The campaign covered roughly 11,000 compounds. About 310 (2.8%) were called active. The sample as a whole holds a higher share of actives than the screen did.

Specify reported activity change, negative = activation for the molecule shown: `O=C(Nc1cccc(Cl)c1)Nc1cc(S(=O)(=O)N2CCCCC2)ccc1Cl`
-108% (active)

Specify reported activity change, negative = activation for the molecule shown: `CCOC(=O)c1sc(N=NC2=C(O)CCCC2=O)c(C(=O)OCC)c1C`
20.6% (inactive)

Specify reported activity change, negative = activation for the molecule shown: `O=C(Nc1ccc2c(c1)nc1n2CCOC1)c1ccco1`
-29.5% (inactive)

Specify reported activity change, negative = activation for the molecule shown: `O=C(Cc1ccccc1Cl)Nc1cccc(S(=O)(=O)N2CCCCCC2)c1`
-60.6% (inactive)

Specify reported activity change, negative = activation for the molecule shown: O=C(CSc1nnc(-c2ccncc2)n1CC1CCCO1)Nc1nccs1 (configuration not stated)
-2.65% (inactive)

Specify reported activity change, negative = activation for the molecule shown: COCC(C)NCc1cccc(OC)c1OC (configuration not stated)
-14.2% (inactive)

Specify reported activity change, negative = activation for the molecule shown: CCOC(=O)c1ccc(NC(=O)NC2CC3CCC(C2)N3Cc2nnnn2C(C)(C)C)cc1 (configuration not stated)
-45.8% (inactive)

Specify reported activity change, negative = activation for the molecule shown: O=C(CN1C(=O)C2CC=CCC2C1=O)Nc1ccc(S(=O)(=O)NC2=NCCCCC2)cc1 (configuration not stated)
9.65% (inactive)

Specify reported activity change, negative = activation for the molecule shown: `CCOC(=O)c1sc(N=NC2=C(O)CC(C)(C)CC2=O)c(C(=O)OCC)c1C`
-210% (active)

Specify reported activity change, negative = activation for the molecule shown: `COCCNC(=O)Cn1c(=O)n(Cc2ccco2)c(=O)c2ccccc21`
-6.35% (inactive)

Specify reported activity change, negative = activation for the molecule shown: `CC(=O)c1cccc(NC(=O)CCNS(=O)(=O)c2cccc(C(C)=O)c2)c1`
7.05% (inactive)

Specify reported activity change, negative = activation for the molecule shown: CN1CCN(C(CNS(=O)(=O)c2ccc(F)cc2)c2cccnc2)CC1 (configuration not stated)
-10.1% (inactive)
